Target: T1, human PD-1 on Jurkat cells (Jurkat+hPD-1) (human, UniProt Q15116 21-185)
T1 construct: extracellular domain and a portion of the transmembrane domain, stably expressed on Jurkat cells
T1 sequence (Q15116 21-185 limits assumed): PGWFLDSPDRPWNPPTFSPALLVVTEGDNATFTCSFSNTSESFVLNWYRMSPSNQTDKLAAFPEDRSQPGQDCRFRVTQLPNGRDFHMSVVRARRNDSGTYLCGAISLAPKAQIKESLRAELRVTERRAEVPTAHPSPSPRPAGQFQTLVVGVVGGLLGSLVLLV
Experiment: flow cytometry on Jurkat cells expressing hPD-1
assay.endpoint: EC50 (nM)
Write the number in nM without appending the unit.

binder: OMC.2.C6-hIgG4 (antibody, V domains shown) VH: EVQLLESGGGLVQPGGSLRLSCTASGFTFSSYEMQWVRQAPGKGLEWVLGITSSSSHIFYADSVKGRFTVSRDNSKNTLYLQMNSLRAEDTAVYYCTKDLNSYYGLDVWGQGTTVTVSS VL: QSVMTQPPSASGTPGQRVTISCSGSTSNLGNNYVSWYQHLPGTAPKLLIYGNDQRPSGVPDRFSGSKSGTSASLAISGLQSDDEADYYCSSWDASLNVWVFGGGTKLTVLG
unit.of.measure: nM
numeric.readout: 11.5
--
binder: OMC.1.D6-hIgG4 (antibody, V domains shown) VH: EVQLLESGGGLVQPGGSLRLSCAASGFTFSDYYMSWVRQAPGKGLEWVSAISSSGGTIFYADSVKGRFIISRDNSKNTLYLQMNSLRAEDTAVYYCAKHKWNDVYYDAMDVWGQGTTVTVSS VL: QSVLTQPPSASGTPGQRVTISCSGSNSNIGRNLVNWYQQLPGTAPKLLIYTVDQRPSGVPDRFSGSKSGTSASLAISGLASEDEADYYCAAWDSSLNSWVFGGGTKLTVLG
unit.of.measure: nM
numeric.readout: 16

Now look at this entry.
// recorded EC50 for A2-hIgG4 (antibody, V domains shown) VH: DVQLVESGGGLVQPGGSLRLSCAASGFTFDISAMSWVRQAPGKGLEWVSTISGSAYSTYYADSVKGRFTISRDNSKSTLYLQMNSLRAEDTAVYYCAREIFSDYWGLGTLVTVSS VL: QSVLTQPPSASGTPGQRVTISCSGSTSNIGRESVYWYQQLPGTAPKLLIYSNVQRPSGAPNRFSGSKSGTSASLAISGLQSEDEADYYCGTWDDSLNGWVFGGGTKLTVLG : 5.97
